// hFAAH kinact/Ki lookup, one value per entry
Target: Human FAAH (Homo sapiens, UniProt O00519)
Construct: made in house
Sequence (O00519 whole entry): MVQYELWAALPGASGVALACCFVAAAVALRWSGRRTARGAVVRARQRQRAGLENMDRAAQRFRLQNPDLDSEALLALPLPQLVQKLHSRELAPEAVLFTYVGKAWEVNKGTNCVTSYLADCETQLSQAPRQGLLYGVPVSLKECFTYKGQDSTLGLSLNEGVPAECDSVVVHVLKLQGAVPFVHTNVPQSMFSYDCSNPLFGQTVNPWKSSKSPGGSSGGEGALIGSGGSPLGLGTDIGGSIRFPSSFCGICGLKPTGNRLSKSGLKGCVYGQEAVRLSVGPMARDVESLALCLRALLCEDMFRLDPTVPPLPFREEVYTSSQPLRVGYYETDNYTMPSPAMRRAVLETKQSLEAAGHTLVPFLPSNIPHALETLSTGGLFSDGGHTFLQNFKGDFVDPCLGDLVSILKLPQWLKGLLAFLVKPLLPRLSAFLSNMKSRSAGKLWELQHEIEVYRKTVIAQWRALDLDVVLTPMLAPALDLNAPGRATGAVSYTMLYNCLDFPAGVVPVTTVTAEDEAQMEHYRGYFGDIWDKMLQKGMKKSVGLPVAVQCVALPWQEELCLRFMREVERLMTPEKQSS
Assay: FAAH assay (glutamate dehydrogenase-coupled, oleamide substrate, absorbance at 340 nm)
Format: biochemical
Settings: irreversible inhibition, 1-4 nM FAAH, pH 7.4, 30° C., 90 min
Value expressed in M⁻¹ s⁻¹; do not type the unit.

These solved cases illustrate the format of a correct answer.
Cc1cnc(NC(=O)N2CCC(=Cc3cccc(Oc4ccc(C(F)(F)F)cn4)c3)CC2)cn1 [Example 22] :: 12000
O=C(Nc1ccccn1)N1CCC(=Cc2cccc(Oc3ccc(C(F)(F)F)cn3)c2)CC1 [Example 9] :: 3660
O=C(Nc1cccnc1)N1CCC(=Cc2cccc(Oc3ccc(OCC(F)(F)F)cc3)c2)CC1 [Example 99] :: 1130
O=C(Nc1ccc2cc[nH]c2n1)N1CCC(=Cc2cccc(Oc3ccc(C(F)(F)F)cn3)c2)CC1 [Example 13] :: 3870

Could you now look at the following compound, please?
**Q:** Quote Human FAAH (Homo sapiens, UniProt O00519) hFAAH kinact/Ki for entry O=C(Nc1cccnc1)N1CCC(=Cc2cccc(Oc3ccc(C(F)(F)F)cc3)c2)CC1 [Example 53] .
**A:** 4520

###

Target: Human FAAH (Homo sapiens, UniProt O00519)
Construct: made in house
Test: FAAH assay (glutamate dehydrogenase-coupled, oleamide substrate, absorbance at 340 nm)
Format: biochemical
Settings: irreversible inhibition, 1-4 nM FAAH, pH 7.4, 30° C., 90 min, read-out: hFAAH kinact/Ki
Method: The FAAH assay was carried out in 384-well clear polystyrene plates in a total volume of 50 μl per well. All percents are by volume. To each well, was placed the reaction mixture (40 μl) containing 1-4 nM FAAH, 50 mM NaPi, pH 7.4, 3 mM α-ketoglutarate, 0.15 mM NADH, 7.5 U/ml glutamate dehydrogenase, 2 mM ADP, 1 mM EDTA, and 0.1% Triton X-100 (The concentration shown for each component is the final concentration in the assay). […]
Where a name gives a salt, the structure may show the parent alone.
endpoint: kinact/KI (M⁻¹ s⁻¹)
Value expressed in M⁻¹ s⁻¹; do not type the unit.

Cc1ccc(C=C2CCN(C(=O)Nc3cccnc3)CC2)cc1Oc1ccc(C(F)(F)F)cn1 [Example 60] :: 1580
O=C(Nc1cccnn1)N1CCC(=Cc2cccc(Oc3ncc(F)cn3)c2)CC1 [Example 108] :: 1120
COc1cncc(NC(=O)N2CCC(=Cc3cccc(Oc4ccc(C(F)(F)F)cn4)c3)CC2)n1 [Example 23] :: 2910
O=C(Nc1cccnn1)N1CCC(=Cc2cccc(Oc3ncc(Br)cn3)c2)CC1 [Example 37] :: 15100
O=C(Nc1ncccc1O)N1CCC(=Cc2cccc(Oc3ccc(C(F)(F)F)cn3)c2)CC1 [Example 79, trifluoroacetate] :: 4880

**Q:** Quote Human FAAH (Homo sapiens, UniProt O00519) kinact/KI for entry CCn1ncnc1NC(=O)N1CCC(=Cc2cccc(Oc3ccc(C(F)(F)F)cn3)c2)CC1 [Example 81, trifluoroacetate] .
**A:** 1010

**Q:** Quote Human FAAH (Homo sapiens, UniProt O00519) kinact/KI for entry O=C(Nc1cccnc1)N1CCC(=C(F)c2cccc(Oc3ccc(C(F)(F)F)cn3)c2)CC1 [Example 69] .
**A:** 2300

**Q:** Quote Human FAAH (Homo sapiens, UniProt O00519) kinact/KI for entry Cc1nccnc1Oc1cccc(C=C2CCN(C(=O)Nc3cccnn3)CC2)c1 [Example 118] .
**A:** 191

Reference source: patent US8044052B2
